- ASSAY NOTES: Metabolic stability in human liver microsomes assessed as parent compound remaining incubated for 120 mins
- Type: ADME, Microsome
- CONDITION PARAMETERS: read-out: Stability
Checkbox rule: remaining at 2 h lower than 90% = condition met; remaining at 2 h not lower than 90% = condition not met.

| LINE NOTATION | ASSIGNED CATEGORY |
| --- | --- |
| COC(=O)CNC(=O)c1ccc2c(c1)C(=O)c1ccc(Nc3ccc(F)cc3F)cc1CC2 | condition met |
| O=C(NCCN1CCNCC1)c1ccc2c(c1)C(=O)c1ccc(Nc3ccc(F)cc3F)cc1CC2 | condition not met |
| Nc1ccccc1Nc1ccc2c(c1)CCc1ccc(C(=O)NCCO)cc1C2=O | condition not met |

INPUT: Lab note: remaining at 2 h threshold 90%. Does this compound come in strictly under it? `O=C(O)CCNC(=O)c1ccc2c(c1)C(=O)c1ccc(Nc3ccc(F)cc3F)cc1CC2`
OUTPUT: condition not met

INPUT: Lab log: compare recorded remaining at 2 h with 90%; is it strictly lower for `O=C(NCCc1c[nH]c2ccccc12)c1ccc2c(c1)C(=O)c1ccc(Nc3ccc(F)cc3F)cc1CC2` ?
OUTPUT: condition met

====

Exercise: for every item that follows, state its recorded Kp at 2 h.
- ASSAY NOTES: Ratio of drug concentration in RjOrl:Swiss (CD-1) mouse brain to plasma at 10mg/kg, iv administered measured after 2 hrs by LC-MS/MS analysis
- Assay type: ADME, organism-based
- CONDITION PARAMETERS: brain and plasma, read-out: BPR
Numbers only.

For each entry beneath this line, provide reported Kp at 2 h.
1. CN(C)CCNC(=O)c1ccc2c(c1)C(=O)c1ccc(Nc3ccccc3N)cc1CC2
2. O=C(NC1(c2ccccc2)CC1)c1ccc2c(c1)C(=O)c1ccc(Nc3ccc(F)cc3F)cc1CC2
3. O=C(NCCN1CC2(COC2)C1)c1ccc2c(c1)C(=O)c1ccc(Nc3ccc(F)cc3F)cc1CC2
4. O=C(O)CNC(=O)c1ccc2c(c1)C(=O)c1ccc(Nc3ccc(F)cc3F)cc1CC2
5. O=C(NCCN1CCNCC1)c1ccc2c(c1)C(=O)c1ccc(Nc3ccc(F)cc3F)cc1CC2

OUTPUT:
0.59
0.51
0.16
0.13
0.24

# map each compound to its Kp at 2 h
1. O=C(N[C@@H]1[C@@H](O)[C@H](O)[C@@H](CO)O[C@H]1O)c1ccc2c(c1)C(=O)c1ccc(Nc3ccc(F)cc3F)cc1CC2
2. Nc1ccccc1Nc1ccc2c(c1)CCc1ccc(C(=O)NCCN3CCOCC3)cc1C2=O
3. N[C@@H](CNC(=O)c1ccc2c(c1)C(=O)c1ccc(Nc3ccc(F)cc3F)cc1CC2)C(=O)O

OUTPUT:
[0.09, 0.08, 0.003]

INPUT: Input `O=C(O)CCCNC(=O)c1ccc2c(c1)C(=O)c1ccc(Nc3ccc(F)cc3F)cc1CC2` , output reported Kp at 2 h.
OUTPUT: 4.38

====

Task for the reader: assign each of the following compounds its reported inhibition at 10 µM.
- EXPERIMENTAL SYSTEM: hERG (Homo sapiens, UniProt Q12809)
- Sequence (Q12809 whole entry): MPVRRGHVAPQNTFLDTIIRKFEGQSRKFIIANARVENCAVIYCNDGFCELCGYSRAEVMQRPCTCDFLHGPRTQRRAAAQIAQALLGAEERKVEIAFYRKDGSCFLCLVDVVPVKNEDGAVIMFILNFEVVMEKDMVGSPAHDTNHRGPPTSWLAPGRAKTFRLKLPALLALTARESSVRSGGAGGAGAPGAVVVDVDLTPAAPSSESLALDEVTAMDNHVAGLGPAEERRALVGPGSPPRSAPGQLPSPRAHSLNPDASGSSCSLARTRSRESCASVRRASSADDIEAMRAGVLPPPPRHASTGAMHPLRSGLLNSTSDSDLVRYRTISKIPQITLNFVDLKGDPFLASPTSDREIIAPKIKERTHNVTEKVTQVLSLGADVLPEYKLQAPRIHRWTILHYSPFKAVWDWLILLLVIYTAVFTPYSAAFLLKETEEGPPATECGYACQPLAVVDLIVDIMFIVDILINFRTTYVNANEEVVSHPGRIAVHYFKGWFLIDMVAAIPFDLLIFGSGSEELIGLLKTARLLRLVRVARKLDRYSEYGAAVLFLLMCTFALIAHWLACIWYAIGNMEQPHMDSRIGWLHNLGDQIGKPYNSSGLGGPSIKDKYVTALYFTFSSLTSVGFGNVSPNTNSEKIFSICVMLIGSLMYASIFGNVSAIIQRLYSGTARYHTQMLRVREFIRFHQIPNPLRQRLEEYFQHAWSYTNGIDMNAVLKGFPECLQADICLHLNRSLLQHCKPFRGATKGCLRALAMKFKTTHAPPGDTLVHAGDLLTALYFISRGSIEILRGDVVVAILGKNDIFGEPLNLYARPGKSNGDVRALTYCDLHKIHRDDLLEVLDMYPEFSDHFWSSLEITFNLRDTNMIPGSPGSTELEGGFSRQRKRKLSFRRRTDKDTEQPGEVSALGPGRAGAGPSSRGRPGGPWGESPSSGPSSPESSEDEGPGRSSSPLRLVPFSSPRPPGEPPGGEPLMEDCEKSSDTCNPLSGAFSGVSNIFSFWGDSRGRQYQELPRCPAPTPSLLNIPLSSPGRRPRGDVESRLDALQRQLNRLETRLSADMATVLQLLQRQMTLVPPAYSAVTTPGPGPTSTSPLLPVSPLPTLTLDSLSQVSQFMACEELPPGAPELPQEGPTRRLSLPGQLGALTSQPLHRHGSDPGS
- ASSAY NOTES: Inhibition of hERG at 10 uM by fluorimetric analysis relative to control
- Format: toxicity
One number for each entry, in %.

Solved cases (5 shown):
| LINE NOTATION | inhibition at 10 µM (%) |
| --- | --- |
| O=C(NCCN1CC2(COC2)C1)c1ccc2c(c1)C(=O)c1ccc(Nc3ccc(F)cc3F)cc1CC2 | 76.6 |
| O=C(O)CCNC(=O)c1ccc2c(c1)C(=O)c1ccc(Nc3ccc(F)cc3F)cc1CC2 | 11.8 |
| O=C(O)CCCNC(=O)c1ccc2c(c1)C(=O)c1ccc(Nc3ccc(F)cc3F)cc1CC2 | 14.4 |
| COC(=O)CCNC(=O)c1ccc2c(c1)C(=O)c1ccc(Nc3ccc(F)cc3F)cc1CC2 | 59.9 |
| Nc1ccccc1Nc1ccc2c(c1)CCc1ccc(C(=O)NCCC(=O)O)cc1C2=O | 22.5 |

Proceeding to the next compound to report its inhibition at 10 µM.
INPUT: For the compound `COC(=O)CCCNC(=O)c1ccc2c(c1)C(=O)c1ccc(Nc3ccc(F)cc3F)cc1CC2` , report inhibition at 10 µM.
OUTPUT: 49.7

====

What log10 concentration at 2 h was measured for each of the following?
- ASSAY NOTES: Drug uptake in RjOrl:Swiss (CD-1) mouse brain at 10 mg/kg, iv administered measured after 2 hrs by LC-MS/MS analysis
- Format: ADME, organism-based
- CONDITION PARAMETERS: read-out: Ct
A value of 2 here means concentration at 2 h of 100 in ng/g, since values are log10.

| LINE NOTATION | log10 concentration at 2 h |
| --- | --- |
| O=C(NCCN1CC2(COC2)C1)c1ccc2c(c1)C(=O)c1ccc(Nc3ccc(F)cc3F)cc1CC2 | 1.83 |
| O=C(O)CCNC(=O)c1ccc2c(c1)C(=O)c1ccc(Nc3ccc(F)cc3F)cc1CC2 | 2.01 |
| O=C(NC1(c2ccccc2)CC1)c1ccc2c(c1)C(=O)c1ccc(Nc3ccc(F)cc3F)cc1CC2 | 1.69 |
| O=C(O)CCCNC(=O)c1ccc2c(c1)C(=O)c1ccc(Nc3ccc(F)cc3F)cc1CC2 | 1.99 |
| O=C(N[C@@H]1[C@@H](O)[C@H](O)[C@@H](CO)O[C@H]1O)c1ccc2c(c1)C(=O)c1ccc(Nc3ccc(F)cc3F)cc1CC2 | 0.77 |
| O=C(N[C@@H](Cc1ccccc1)C(=O)O)c1ccc2c(c1)C(=O)c1ccc(Nc3ccc(F)cc3F)cc1CC2 | 1.18 |

Now for a further compound.
INPUT: Tell me measured log10 concentration at 2 h for `O=C(O)CNC(=O)c1ccc2c(c1)C(=O)c1ccc(Nc3ccc(F)cc3F)cc1CC2` please.
OUTPUT: 0.91
